Listed here are molecules together with their documented relative viability.
# Tested on: NCI-H1437
# experimental-protocol: relative viability (nuclei count vs DMSO), 5 days (fraction); higher = more cells survive
# run-conditions: first compound 0.1 µM
metric: relative viability

>>> result_value("Cc1cn(-c2cc(NC(=O)c3ccc(C)c(Nc4nccc(-c5cccnc5)n4)c3)cc(C(F)(F)F)c2)cn1 [Nilotinib] + CC(C)C[C@H](NC(=O)[C@H](Cc1ccccc1)NC(=O)c1cnccn1)B(O)O [Bortezomib] (partner 0.002 µM)")
0.161
>>> result_value("Cc1cn(-c2cc(NC(=O)c3ccc(C)c(Nc4nccc(-c5cccnc5)n4)c3)cc(C(F)(F)F)c2)cn1 [Nilotinib] + CC1(C)CCC(c2ccc(Cl)cc2)=C(CN2CCN(c3ccc(C(=O)NS(=O)(=O)c4ccc(N[C@H](CCN5CCOCC5)CSc5ccccc5)c(S(=O)(=O)C(F)(F)F)c4)cc3)CC2)C1 [Navitoclax] (partner 0.5 µM)")
0.925
>>> result_value("Cc1cn(-c2cc(NC(=O)c3ccc(C)c(Nc4nccc(-c5cccnc5)n4)c3)cc(C(F)(F)F)c2)cn1 [Nilotinib] + CCNC(=O)c1noc(-c2cc(C(C)C)c(O)cc2O)c1-c1ccc(CN2CCOCC2)cc1 [Luminespib] (partner 0.01 µM)")
0.934
>>> result_value("Cc1cn(-c2cc(NC(=O)c3ccc(C)c(Nc4nccc(-c5cccnc5)n4)c3)cc(C(F)(F)F)c2)cn1 [Nilotinib] + CS(=O)(=O)N1CCN(Cc2cc3nc(-c4cccc5[nH]ncc45)nc(N4CCOCC4)c3s2)CC1 [Pictilisib] (partner 1 µM)")
0.44

###

# System: NCI-H2085
# experimental-protocol: relative viability (nuclei count vs DMSO), 5 days (fraction); higher = more cells survive
# run-conditions: first compound 0.003162 µM
For each record, check the reported relative viability: if it is below 0.7 write Criterion met, else write Criterion not met.

>>> label("Cc1cn(-c2cc(NC(=O)c3ccc(C)c(Nc4nccc(-c5cccnc5)n4)c3)cc(C(F)(F)F)c2)cn1 [Nilotinib] + Cc1nc(Nc2ncc(C(=O)Nc3c(C)cccc3Cl)s2)cc(N2CCN(CCO)CC2)n1 [Dasatinib] (partner 0.075 µM)")
"Criterion met"
>>> label("Cc1cn(-c2cc(NC(=O)c3ccc(C)c(Nc4nccc(-c5cccnc5)n4)c3)cc(C(F)(F)F)c2)cn1 [Nilotinib] + CC(C)C[C@H](NC(=O)[C@H](Cc1ccccc1)NC(=O)c1cnccn1)B(O)O [Bortezomib] (partner 0.002 µM)")
"Criterion not met"
>>> label("Cc1cn(-c2cc(NC(=O)c3ccc(C)c(Nc4nccc(-c5cccnc5)n4)c3)cc(C(F)(F)F)c2)cn1 [Nilotinib] + COc1cccc2cc(-c3nc([C@H]4CC[C@H](C(=O)O)CC4)n4ncnc(N)c34)[nH]c12 [OSI-027] (partner 0.5 µM)")
"Criterion met"
>>> label("Cc1cn(-c2cc(NC(=O)c3ccc(C)c(Nc4nccc(-c5cccnc5)n4)c3)cc(C(F)(F)F)c2)cn1 [Nilotinib] + CCNC(=O)c1noc(-c2cc(C(C)C)c(O)cc2O)c1-c1ccc(CN2CCOCC2)cc1 [Luminespib] (partner 0.01 µM)")
"Criterion met"
>>> label("Cc1cn(-c2cc(NC(=O)c3ccc(C)c(Nc4nccc(-c5cccnc5)n4)c3)cc(C(F)(F)F)c2)cn1 [Nilotinib] + N=C(N)NC(=N)NCCc1ccccc1 [Phenformin] (partner 250 µM)")
"Criterion not met"

###

# System: HCC-366
# experimental-protocol: relative viability (nuclei count vs DMSO), 5 days (fraction); higher = more cells survive
# run-conditions: first compound 20 µM
Listed here are compounds together with their documented relative viability.
metric: relative viability

>>> result_value("Cc1csc(=NC2CCCCC2)n1/N=C/c1ccc(O)c(O)c1O [MIM1] + COc1cc2c(Oc3ccc(NC(=O)C4(C(=O)Nc5ccc(F)cc5)CC4)cc3F)ccnc2cc1OCCCN1CCOCC1 [Foretinib] (partner 0.25 µM)")
0.077
>>> result_value("Cc1csc(=NC2CCCCC2)n1/N=C/c1ccc(O)c(O)c1O [MIM1] + Nc1nc2[nH]cc(CCc3ccc(C(=O)N[C@@H](CCC(=O)O)C(=O)O)cc3)c2c(=O)[nH]1 [Pemetrexed] (partner 0.2 µM)")
0.0413

###

# System: COR-L23
# experimental-protocol: relative viability (nuclei count vs DMSO), 5 days (fraction); higher = more cells survive
# run-conditions: first compound 0.6325 µM
This listing pairs molecules with measured relative viability.
metric: relative viability

>>> result_value("CN1CCN(CCOc2cc(OC3CCOCC3)c3c(Nc4c(Cl)ccc5c4OCO5)ncnc3c2)CC1 [Saracatinib] + C[C@@H](Oc1cc(-c2cnn(C3CCNCC3)c2)cnc1N)c1c(Cl)ccc(F)c1Cl [Crizotinib] (partner 1 µM)")
0.658
>>> result_value("Cc1csc(=NC2CCCCC2)n1/N=C/c1ccc(O)c(O)c1O [MIM1] + CS(=O)(=O)CCNCc1ccc(-c2ccc3ncnc(Nc4ccc(OCc5cccc(F)c5)c(Cl)c4)c3c2)o1 [Lapatinib] (partner 2 µM)")
1.07
>>> result_value("CN1CCN(CCOc2cc(OC3CCOCC3)c3c(Nc4c(Cl)ccc5c4OCO5)ncnc3c2)CC1 [Saracatinib] + CS(=O)(=O)N1CCN(Cc2cc3nc(-c4cccc5[nH]ncc45)nc(N4CCOCC4)c3s2)CC1 [Pictilisib] (partner 1 µM)")
0.75
>>> result_value("CN1CCN(CCOc2cc(OC3CCOCC3)c3c(Nc4c(Cl)ccc5c4OCO5)ncnc3c2)CC1 [Saracatinib] + Cc1cc(Nc2cc(N3CCN(C)CC3)nc(Sc3ccc(NC(=O)C4CC4)cc3)n2)n[nH]1 [Tozasertib] (partner 0.1 µM)")
0.155
>>> result_value("CN1CCN(CCOc2cc(OC3CCOCC3)c3c(Nc4c(Cl)ccc5c4OCO5)ncnc3c2)CC1 [Saracatinib] + COc1cc2c(Oc3ccc(NC(=O)C4(C(=O)Nc5ccc(F)cc5)CC4)cc3F)ccnc2cc1OCCCN1CCOCC1 [Foretinib] (partner 0.25 µM)")
0.87
>>> result_value("CN1CCN(CCOc2cc(OC3CCOCC3)c3c(Nc4c(Cl)ccc5c4OCO5)ncnc3c2)CC1 [Saracatinib] + Nc1ncn([C@H]2C[C@H](O)[C@@H](CO)O2)c(=O)n1 [Decitabine] (partner 2 µM)")
0.419
>>> result_value("Cc1csc(=NC2CCCCC2)n1/N=C/c1ccc(O)c(O)c1O [MIM1] + CS(=O)(=O)N1CCN(Cc2cc3nc(-c4cccc5[nH]ncc45)nc(N4CCOCC4)c3s2)CC1 [Pictilisib] (partner 1 µM)")
0.654
>>> result_value("CN1CCN(CCOc2cc(OC3CCOCC3)c3c(Nc4c(Cl)ccc5c4OCO5)ncnc3c2)CC1 [Saracatinib] + Nc1nc2[nH]cc(CCc3ccc(C(=O)N[C@@H](CCC(=O)O)C(=O)O)cc3)c2c(=O)[nH]1 [Pemetrexed] (partner 0.2 µM)")
0.176
>>> result_value("CN1CCN(CCOc2cc(OC3CCOCC3)c3c(Nc4c(Cl)ccc5c4OCO5)ncnc3c2)CC1 [Saracatinib] + O=C(CCCCCCC(=O)Nc1ccccc1)NO [Vorinostat] (partner 1 µM)")
0.469
>>> result_value("Cc1csc(=NC2CCCCC2)n1/N=C/c1ccc(O)c(O)c1O [MIM1] + COc1cccc2cc(-c3nc([C@H]4CC[C@H](C(=O)O)CC4)n4ncnc(N)c34)[nH]c12 [OSI-027] (partner 0.5 µM)")
0.955
>>> result_value("CN1CCN(CCOc2cc(OC3CCOCC3)c3c(Nc4c(Cl)ccc5c4OCO5)ncnc3c2)CC1 [Saracatinib] + Cc1nc(Nc2ncc(C(=O)Nc3c(C)cccc3Cl)s2)cc(N2CCN(CCO)CC2)n1 [Dasatinib] (partner 0.075 µM)")
0.542

###

# System: NCI-H2342
# experimental-protocol: relative viability (nuclei count vs DMSO), 5 days (fraction); higher = more cells survive
# run-conditions: first compound 0.01 µM
metric: relative viability

>>> result_value("Cc1cn(-c2cc(NC(=O)c3ccc(C)c(Nc4nccc(-c5cccnc5)n4)c3)cc(C(F)(F)F)c2)cn1 [Nilotinib] + NC(=O)Nc1cc(-c2cccc(F)c2)sc1C(=O)N[C@H]1CCCNC1 [AZD7762] (partner 0.2 µM)")
0.411
>>> result_value("Cc1cn(-c2cc(NC(=O)c3ccc(C)c(Nc4nccc(-c5cccnc5)n4)c3)cc(C(F)(F)F)c2)cn1 [Nilotinib] + CC(=O)c1c(C)c2cnc(Nc3ccc(N4CCNCC4)cn3)nc2n(C2CCCC2)c1=O [Palbociclib] (partner 0.5 µM)")
0.49
>>> result_value("Cc1cn(-c2cc(NC(=O)c3ccc(C)c(Nc4nccc(-c5cccnc5)n4)c3)cc(C(F)(F)F)c2)cn1 [Nilotinib] + CC(=O)Nc1cccc(-n2c(=O)n(C3CC3)c(=O)c3c(Nc4ccc(I)cc4F)n(C)c(=O)c(C)c32)c1 [Trametinib] (partner 0.02 µM)")
0.798
>>> result_value("Cc1cn(-c2cc(NC(=O)c3ccc(C)c(Nc4nccc(-c5cccnc5)n4)c3)cc(C(F)(F)F)c2)cn1 [Nilotinib] + O=C(CCCCCCC(=O)Nc1ccccc1)NO [Vorinostat] (partner 1 µM)")
0.668
